# Experimental system: Tyrosine-protein kinase JAK2 (Homo sapiens)
# Sequence (O60674 whole entry): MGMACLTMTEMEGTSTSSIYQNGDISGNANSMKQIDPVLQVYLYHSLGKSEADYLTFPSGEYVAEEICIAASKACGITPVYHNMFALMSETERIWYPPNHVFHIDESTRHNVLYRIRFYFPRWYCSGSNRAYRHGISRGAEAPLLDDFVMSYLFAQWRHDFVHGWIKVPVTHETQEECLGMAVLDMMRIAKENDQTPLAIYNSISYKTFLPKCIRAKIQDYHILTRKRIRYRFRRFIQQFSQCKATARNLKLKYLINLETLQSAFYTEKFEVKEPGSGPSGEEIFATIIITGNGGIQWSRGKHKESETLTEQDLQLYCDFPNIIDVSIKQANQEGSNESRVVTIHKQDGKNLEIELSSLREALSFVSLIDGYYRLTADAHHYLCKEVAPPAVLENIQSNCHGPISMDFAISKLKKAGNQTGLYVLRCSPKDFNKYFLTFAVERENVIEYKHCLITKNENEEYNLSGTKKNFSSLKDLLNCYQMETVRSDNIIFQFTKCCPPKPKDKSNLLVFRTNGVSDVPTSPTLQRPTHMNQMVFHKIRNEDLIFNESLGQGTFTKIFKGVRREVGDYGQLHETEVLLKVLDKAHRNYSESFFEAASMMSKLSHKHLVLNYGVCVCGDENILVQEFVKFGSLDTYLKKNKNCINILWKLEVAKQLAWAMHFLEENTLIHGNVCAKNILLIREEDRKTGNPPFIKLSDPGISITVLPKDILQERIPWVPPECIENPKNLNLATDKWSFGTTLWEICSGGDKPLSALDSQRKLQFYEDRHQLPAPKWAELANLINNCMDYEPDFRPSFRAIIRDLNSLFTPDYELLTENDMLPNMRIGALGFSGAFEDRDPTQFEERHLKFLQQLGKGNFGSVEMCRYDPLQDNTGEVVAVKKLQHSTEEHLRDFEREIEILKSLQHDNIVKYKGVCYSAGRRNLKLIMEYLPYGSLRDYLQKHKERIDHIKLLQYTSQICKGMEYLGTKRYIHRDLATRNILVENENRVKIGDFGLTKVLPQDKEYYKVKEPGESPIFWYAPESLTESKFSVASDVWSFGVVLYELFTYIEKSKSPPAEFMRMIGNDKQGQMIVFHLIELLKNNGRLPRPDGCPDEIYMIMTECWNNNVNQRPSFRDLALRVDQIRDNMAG
Parameter measured: IC50

I have this compound here, `OCCn1cc(Nc2ncc(Cl)c(NCc3cc(F)ccc3F)n2)cn1` , and I need its recorded IC50. 0.316 nM

###

# Experimental system: JAK3/JAK1 (Homo sapiens, UniProt P23458+P52333)
# Procedure summary: Inhibition of JAK1/JAK3 in human PBMC cells assessed as reduction in IL2-induced IFNgamma production
Please respond with reported pIC50 for every item in the list.
Convention used: pIC50 is expressed as -log10 of the molar concentration.

I have this molecule here, `OCCn1cc(Nc2ncc(Cl)c(NCc3cc(F)ccc3F)n2)cn1` , and I need its recorded pIC50. 8.10

Also check `COc1cc(-c2cnc3cccc(-c4cc(F)c(CN5CCS(=O)(=O)CC5)c(F)c4)c3n2)ccc1OCCCN1CCOCC1` 6.50

###

# Experimental system: Tyrosine-protein kinase JAK3 (Homo sapiens, UniProt P52333)
# Sequence (P52333 whole entry): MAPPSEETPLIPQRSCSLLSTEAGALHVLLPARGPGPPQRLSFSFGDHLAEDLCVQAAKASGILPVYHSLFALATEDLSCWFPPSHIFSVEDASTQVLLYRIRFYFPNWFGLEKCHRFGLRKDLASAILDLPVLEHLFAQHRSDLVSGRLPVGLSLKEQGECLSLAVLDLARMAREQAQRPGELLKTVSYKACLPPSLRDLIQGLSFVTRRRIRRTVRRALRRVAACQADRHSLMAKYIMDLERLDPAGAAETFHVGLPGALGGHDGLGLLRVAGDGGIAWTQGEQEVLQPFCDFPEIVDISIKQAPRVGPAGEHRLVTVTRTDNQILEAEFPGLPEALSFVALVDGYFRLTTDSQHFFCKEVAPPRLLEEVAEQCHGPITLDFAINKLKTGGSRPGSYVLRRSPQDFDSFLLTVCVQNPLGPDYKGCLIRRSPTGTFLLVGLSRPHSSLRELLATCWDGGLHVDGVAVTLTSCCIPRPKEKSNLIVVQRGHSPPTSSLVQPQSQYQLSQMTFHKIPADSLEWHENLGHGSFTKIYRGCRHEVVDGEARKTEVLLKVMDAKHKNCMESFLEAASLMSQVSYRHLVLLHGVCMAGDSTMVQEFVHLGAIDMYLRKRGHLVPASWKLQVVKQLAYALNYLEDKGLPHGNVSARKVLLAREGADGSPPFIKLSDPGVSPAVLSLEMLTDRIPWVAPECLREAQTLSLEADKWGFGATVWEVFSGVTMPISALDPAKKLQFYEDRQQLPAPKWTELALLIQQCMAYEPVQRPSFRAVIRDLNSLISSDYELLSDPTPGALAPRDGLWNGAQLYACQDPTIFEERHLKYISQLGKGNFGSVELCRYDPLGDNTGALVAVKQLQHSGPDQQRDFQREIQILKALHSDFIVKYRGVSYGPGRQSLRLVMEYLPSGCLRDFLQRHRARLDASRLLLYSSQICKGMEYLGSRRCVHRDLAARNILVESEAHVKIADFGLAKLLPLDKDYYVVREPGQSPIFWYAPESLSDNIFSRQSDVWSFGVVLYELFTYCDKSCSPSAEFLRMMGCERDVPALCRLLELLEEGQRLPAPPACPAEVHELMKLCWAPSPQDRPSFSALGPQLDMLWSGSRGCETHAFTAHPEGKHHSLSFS
Parameter measured: IC50 (nM)
Numeric answer only, unit nM assumed.

Lab note: need IC50 with Tyrosine-protein kinase JAK3 (Homo sapiens, UniProt P52333) for entry `OCCn1cc(Nc2ncc(Cl)c(NCc3cc(F)ccc3F)n2)cn1` , please look it up. 1
